Data origin, for the record: patent US20230295298A1

Reported EC50 values are given for each entry in this list.
# experimental_target: T1, human A33 antigen, full length, on cells (human, UniProt Q99795 22-319)
# T1 construct: CHO cells transfected with full length A33 cDNA (A33-CHO), or endogenous antigen of LS174T (colon) and AsPC-1 (pancreatic) tumour cells; The cell line is named under assay; also called A33-CHO; A33 antigen on LS174T cells
# T1 sequence: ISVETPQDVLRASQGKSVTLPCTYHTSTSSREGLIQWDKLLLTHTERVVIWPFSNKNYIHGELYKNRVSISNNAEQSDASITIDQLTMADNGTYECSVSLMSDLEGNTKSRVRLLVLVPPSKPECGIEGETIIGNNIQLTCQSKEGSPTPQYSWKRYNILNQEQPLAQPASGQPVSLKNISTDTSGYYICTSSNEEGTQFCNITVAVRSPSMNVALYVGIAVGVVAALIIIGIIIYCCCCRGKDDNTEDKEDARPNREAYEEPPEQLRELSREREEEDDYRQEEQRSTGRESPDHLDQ
# measurement_protocol: flow cytometry, AsPC-1 cells (first AsPC-1 column)
quantity_kind: EC50 (µg/mL)

binder | observed
H31.1 #5-biotin (antibody, human IgG1, kappa, V domains shown, biotinylated antibody, sites not stated, Biotinylated form of antibody #5; also called biotinylated #5; biotinylated h31.1 #5) VH: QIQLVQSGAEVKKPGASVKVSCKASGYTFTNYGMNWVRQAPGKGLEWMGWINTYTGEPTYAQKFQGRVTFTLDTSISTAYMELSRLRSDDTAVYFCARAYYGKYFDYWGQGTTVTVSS VL: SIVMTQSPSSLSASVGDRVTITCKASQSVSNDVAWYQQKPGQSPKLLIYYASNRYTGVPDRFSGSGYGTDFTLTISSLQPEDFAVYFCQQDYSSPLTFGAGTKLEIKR | 0.408
H31.1 #6-biotin (antibody, human IgG1, kappa, V domains shown, biotinylated antibody, sites not stated, Biotinylated form of antibody #6; also called biotinylated #6; biotinylated h31.1 #6) VH: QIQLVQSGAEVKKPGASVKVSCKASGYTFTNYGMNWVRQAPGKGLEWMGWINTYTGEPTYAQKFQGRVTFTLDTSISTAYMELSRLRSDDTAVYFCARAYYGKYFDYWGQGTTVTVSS VL: SIQMTQSPSSLSASVGDRVTITCRASQSVSNDVAWYQQKPGQSPKLLIYYASNRYSGVPDRFSGSGYGTDFTLTISSLQPEDFAVYFCQQDYSSPLTFGAGTKLEIKR | 0.368
humanized 31.1 antibody #5 (abb31.1-HC + cdr31.1-LC) (antibody, human IgG1, kappa, V domains shown, Full heavy and light chains; supernatant in the first screen, Protein A/G purified in the second round; also called Sample ID 5; abb-HC + cdr-LC) VH: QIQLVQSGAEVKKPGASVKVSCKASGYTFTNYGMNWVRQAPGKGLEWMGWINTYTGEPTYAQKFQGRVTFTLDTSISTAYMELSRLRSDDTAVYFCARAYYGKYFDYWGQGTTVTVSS VL: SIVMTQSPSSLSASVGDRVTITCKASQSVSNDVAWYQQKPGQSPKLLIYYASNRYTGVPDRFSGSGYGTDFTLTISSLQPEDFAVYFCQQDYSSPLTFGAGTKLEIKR | 0.235
humanized 31.1 antibody #6 (abb31.1-HC + abb31.1-LC) (antibody, human IgG1, kappa, V domains shown, Full heavy and light chains; supernatant in the first screen, Protein A/G purified in the second round; also called Sample ID 6; abb-HC + abb-LC) VH: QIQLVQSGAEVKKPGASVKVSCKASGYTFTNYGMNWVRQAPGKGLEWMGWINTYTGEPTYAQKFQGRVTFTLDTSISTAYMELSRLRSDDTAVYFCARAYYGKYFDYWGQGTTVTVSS VL: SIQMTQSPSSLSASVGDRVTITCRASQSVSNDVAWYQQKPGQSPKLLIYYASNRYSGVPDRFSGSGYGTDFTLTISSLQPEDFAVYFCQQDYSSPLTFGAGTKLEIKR | 0.276
